Target: Mtb Eis (Mycobacterium tuberculosis, UniProt P9WFK7)
Sequence (P9WFK7 whole entry): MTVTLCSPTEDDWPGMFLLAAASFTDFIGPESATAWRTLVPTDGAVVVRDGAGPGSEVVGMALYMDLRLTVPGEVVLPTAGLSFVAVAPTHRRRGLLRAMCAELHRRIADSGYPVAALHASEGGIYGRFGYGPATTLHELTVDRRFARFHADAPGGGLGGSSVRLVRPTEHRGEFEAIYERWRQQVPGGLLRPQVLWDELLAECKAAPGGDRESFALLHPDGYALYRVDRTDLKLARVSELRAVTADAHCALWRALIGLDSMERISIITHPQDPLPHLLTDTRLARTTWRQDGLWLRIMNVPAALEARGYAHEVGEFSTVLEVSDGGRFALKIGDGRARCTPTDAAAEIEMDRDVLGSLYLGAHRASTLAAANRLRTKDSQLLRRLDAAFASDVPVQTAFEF
Test: Eis acetylation assay
Assay type: biochemical
Settings: Eis 0.25 μM, KAN 100 μM, AcCoA 0.5 mM, Tris-HCl pH 8.0, triplicate
IC50 values by entry

Use the examples below as a reference point.
Fc1ccc(NN=Cc2ccc(Cl)cc2)cc1 [Compound 3]: > 200 µM
NC(N)=NN=Cc1ccc(Cl)cc1 [Compound 1]: 10 µM

Turning now to a further compound:
Q. Please indicate recorded IC50 of Fc1cccc(NN=Cc2ccc(Cl)cc2)c1 [Compound 2] measured with Mtb Eis (Mycobacterium tuberculosis, UniProt P9WFK7).
A. 160 µM
